Taken from PubChem BioAssay AID1963856.

Test system: LG0567-F671-PDC KRAS tumor spheroid viability
Test: Anticancer human tumor LG0567-F671-PDC patient-derived lung adenocarcinoma cell line growth inhibition [KRAS2]
Details: second compound 0.1 µM; first compound 0.0316 µM; stronger effect = lower value; spheroids with HUVEC and MSC
# Lookup of reported viability, T/C keyed by entry

| compound | viability, T/C (%) |
| --- | --- |
| COc1cc2nccc(Oc3ccc(NC(=O)C4(C(=O)Nc5ccc(F)cc5)CC4)cc3)c2cc1OC + COc1cc2nc(C)nc(NC(C)c3cc(N)cc(C(F)(F)F)c3)c2cc1OC1CCOC1 | 78.6 |
| COc1cc(Nc2ncc3c(n2)-c2ccc(Cl)cc2C(c2c(F)cccc2OC)=NC3)ccc1C(=O)O + CNCc1ccccc1-c1csc(C(C)Nc2nc(C)nc3cc(OC)c(OC)cc23)c1 | 72 |
| CC(C)NCC(C(=O)N1CCN(c2ncnc3c2C(C)CC3O)CC1)c1ccc(Cl)cc1 (stereo not drawn) + CC1OCC2(CCN(c3cnc(Sc4ccnc(N)c4Cl)c(N)n3)CC2)C1N | 48.9 |

====

Test system: LG0567-F671-PDC KRAS tumor spheroid viability
Assay: Anticancer human tumor LG0567-F671-PDC cell line growth inhibition [KRAS2];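 note: drug exposure lasted seven days after spheroids formed for three days; 100% = DMSO vehicle control viability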
Details: second compound 1 µM; first compound 3.16 µM; stronger effect = lower value; spheroids with HUVEC and MSC
The entries below come with measured viability, T/C values attached.
outcome.measure: viability, T/C (%)

| compound | target.under.test | observed.value |
| --- | --- | --- |
| COC(=O)c1ccc2c(C(=Nc3ccc(N(C)C(=O)CN4CCN(C)CC4)cc3)c3ccccc3)c(O)[nH]c2c1 + CC1OCC2(CCN(c3cnc(Sc4ccnc(N)c4Cl)c(N)n3)CC2)C1N | LG0567-F671-PDC KRAS tumor spheroid viability | 38.2 |
| O=C(c1cc(Cc2n[nH]c(=O)c3ccccc23)ccc1F)N1CCN(C(=O)C2CC2)CC1 + C=CC(=O)N1CCN(c2nc(OCC3CCCN3C)nc3c2CCN(c2cccc4cccc(C)c24)C3)CC1CC#N | LG0567-F671-PDC KRAS tumor spheroid viability | 25.8 |
| CC1(C)CCC(CN2CCN(c3ccc(C(=O)NS(=O)(=O)c4ccc(NCC5CCOCC5)c([N+](=O)[O-])c4)c(Oc4cnc5[nH]ccc5c4)c3)CC2)=C(c2ccc(Cl)cc2)C1 + CNCc1ccccc1-c1csc(C(C)Nc2nc(C)nc3cc(OC)c(OC)cc23)c1 | LG0567-F671-PDC KRAS tumor spheroid viability | 18.3 |
| COc1cc2nccc(Oc3ccc(NC(=O)C4(C(=O)Nc5ccc(F)cc5)CC4)cc3)c2cc1OC + C=CC(=O)N1CCN(c2nc(=O)n(-c3c(C)ccnc3C(C)C)c3nc(-c4c(O)cccc4F)c(F)cc23)C(C)C1 | LG0567-F671-PDC KRAS tumor spheroid viability | 9.01 |
| CC1OCC2(CCN(c3cnc(Sc4ccnc(N)c4Cl)c(N)n3)CC2)C1N (stereo not given) + CNCc1ccccc1-c1csc(C(C)Nc2nc(C)nc3cc(OC)c(OC)cc23)c1 | LG0567-F671-PDC KRAS tumor spheroid viability | 18.1 |

====

Tested on: LG0567-F671-PDC KRAS tumor spheroid viability
Experiment: Anticancer human tumor LG0567-F671-PDC cell line growth inhibition [KRAS2];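 note: drug exposure lasted seven days after spheroids formed for three days; 100% = DMSO vehicle control viability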
Details: second compound 0.316 µM; first compound 0.01 µM; stronger effect = lower value; spheroids with HUVEC and MSC
With a cut-off of 30%, any viability, T/C strictly below it is called Yes; any viability, T/C meeting it or above is called No.

| molecule | discrete.label |
| --- | --- |
| CC(=O)Nc1cccc(-n2c(=O)n(C3CC3)c(=O)c3c(Nc4ccc(I)cc4F)n(C)c(=O)c(C)c32)c1 + COc1cc2nc(C)nc(NC(C)c3cc(N)cc(C(F)(F)F)c3)c2cc1OC1CCOC1 | Yes |
| CCN1CCN(Cc2ccc(Nc3ncc(F)c(-c4cc(F)c5nc(C)n(C(C)C)c5c4)n3)nc2)CC1 + C=CC(=O)N1CCN(c2nc(OCC3CCCN3C)nc3c2CCN(c2cccc4cccc(C)c24)C3)CC1CC#N | Yes |
| CC(=O)Nc1cccc(-n2c(=O)n(C3CC3)c(=O)c3c(Nc4ccc(I)cc4F)n(C)c(=O)c(C)c32)c1 + CNCc1ccccc1-c1csc(C(C)Nc2nc(C)nc3cc(OC)c(OC)cc23)c1 | No |
| CC(=O)Nc1cccc(-n2c(=O)n(C3CC3)c(=O)c3c(Nc4ccc(I)cc4F)n(C)c(=O)c(C)c32)c1 + C=CC(=O)N1CCN(c2nc(=O)n(-c3c(C)ccnc3C(C)C)c3nc(-c4c(O)cccc4F)c(F)cc23)C(C)C1 | Yes |
| CCN1CCN(Cc2ccc(Nc3ncc(F)c(-c4cc(F)c5nc(C)n(C(C)C)c5c4)n3)nc2)CC1 + COc1cc2nc(C)nc(NC(C)c3cc(N)cc(C(F)(F)F)c3)c2cc1OC1CCOC1 | No |

====

Test system: LG0567-F671-PDC KRAS tumor spheroid viability
Assay: Anticancer human tumor LG0567-F671-PDC cell line growth inhibition [KRAS2];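 note: drug exposure lasted seven days after spheroids formed for three days; 100% = DMSO vehicle control viability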
Conditions: second compound 3.16 µM; first compound 0.00316 µM; stronger effect = lower value; spheroids with HUVEC and MSC
Threshold 10%: viability, T/C strictly smaller gives rule met, otherwise rule not met.

| compound | discrete.label |
| --- | --- |
| CCN1CCN(Cc2ccc(Nc3ncc(F)c(-c4cc(F)c5nc(C)n(C(C)C)c5c4)n3)nc2)CC1 + C=CC(=O)N1CCN(c2nc(=O)n(-c3c(C)ccnc3C(C)C)c3nc(-c4c(O)cccc4F)c(F)cc23)C(C)C1 | rule not met |
| CC(C)n1nc(-c2ccc3oc(N)nc3c2)c2c(N)ncnc21 + C=CC(=O)N1CCN(c2nc(OCC3CCCN3C)nc3c2CCN(c2cccc4cccc(C)c24)C3)CC1CC#N | rule not met |
| CC(C)n1nc(-c2ccc3oc(N)nc3c2)c2c(N)ncnc21 + CC1OCC2(CCN(c3cnc(Sc4ccnc(N)c4Cl)c(N)n3)CC2)C1N | rule met |
| CC(C)n1nc(-c2ccc3oc(N)nc3c2)c2c(N)ncnc21 + CNCc1ccccc1-c1csc(C(C)Nc2nc(C)nc3cc(OC)c(OC)cc23)c1 | rule met |
| CN(C)C/C=C/C(=O)Nc1cc2c(Nc3ccc(F)c(Cl)c3)ncnc2cc1O[C@H]1CCOC1 + COc1cc2nc(C)nc(NC(C)c3cc(N)cc(C(F)(F)F)c3)c2cc1OC1CCOC1 | rule not met |
| CC(=O)Nc1cccc(-n2c(=O)n(C3CC3)c(=O)c3c(Nc4ccc(I)cc4F)n(C)c(=O)c(C)c32)c1 + C=CC(=O)N1CCN(c2nc(OCC3CCCN3C)nc3c2CCN(c2cccc4cccc(C)c24)C3)CC1CC#N | rule not met |
| Cn1ncnc1[C@H]1c2n[nH]c(=O)c3cc(F)cc(c23)N[C@@H]1c1ccc(F)cc1 + COc1cc2nc(C)nc(NC(C)c3cc(N)cc(C(F)(F)F)c3)c2cc1OC1CCOC1 | rule not met |
| CC(C)n1nc(-c2ccc3oc(N)nc3c2)c2c(N)ncnc21 + C=CC(=O)N1CCN(c2nc(=O)n(-c3c(C)ccnc3C(C)C)c3nc(-c4c(O)cccc4F)c(F)cc23)C(C)C1 | rule not met |
| CN(C)C/C=C/C(=O)Nc1cc2c(Nc3ccc(F)c(Cl)c3)ncnc2cc1O[C@H]1CCOC1 + CNCc1ccccc1-c1csc(C(C)Nc2nc(C)nc3cc(OC)c(OC)cc23)c1 | rule met |
| CC(=O)Nc1cccc(-n2c(=O)n(C3CC3)c(=O)c3c(Nc4ccc(I)cc4F)n(C)c(=O)c(C)c32)c1 + CC1OCC2(CCN(c3cnc(Sc4ccnc(N)c4Cl)c(N)n3)CC2)C1N | rule met |
| CCN1CCN(Cc2ccc(Nc3ncc(F)c(-c4cc(F)c5nc(C)n(C(C)C)c5c4)n3)nc2)CC1 + C=CC(=O)N1CCN(c2nc(OCC3CCCN3C)nc3c2CCN(c2cccc4cccc(C)c24)C3)CC1CC#N | rule not met |
| CCN1CCN(Cc2ccc(Nc3ncc(F)c(-c4cc(F)c5nc(C)n(C(C)C)c5c4)n3)nc2)CC1 + CC1OCC2(CCN(c3cnc(Sc4ccnc(N)c4Cl)c(N)n3)CC2)C1N | rule not met |

====

System: LG0567-F671-PDC KRAS tumor spheroid viability
Assay: Anticancer human tumor LG0567-F671-PDC cell line growth inhibition [KRAS2]; active means viability on the fitted dose curve at most 10% of control; inactive means the rest;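 note: drug exposure lasted seven days after spheroids formed for three days; 100% = DMSO vehicle control viability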
Conditions: second compound 0.1 µM; first compound 3.16 µM; spheroids with HUVEC and MSC
Outcome codes: Yes for active, No for inactive

| compound | discrete.label |
| --- | --- |
| CC1COCCN1c1cc(-c2ccnn2C)c2ccnc(-c3ccn[nH]3)c2n1 (centres undefined) + COc1cc2nc(C)nc(NC(C)c3cc(N)cc(C(F)(F)F)c3)c2cc1OC1CCOC1 | No |
| O=C(c1cc(Cc2n[nH]c(=O)c3ccccc23)ccc1F)N1CCN(C(=O)C2CC2)CC1 + COc1cc2nc(C)nc(NC(C)c3cc(N)cc(C(F)(F)F)c3)c2cc1OC1CCOC1 | No |
| CCNC(=O)CC1N=C(c2ccc(Cl)cc2)c2cc(OC)ccc2-n2c(C)nnc21 (centres undefined) + C=CC(=O)N1CCN(c2nc(OCC3CCCN3C)nc3c2CCN(c2cccc4cccc(C)c24)C3)CC1CC#N | No |
| COc1cc(Nc2ncc3c(n2)-c2ccc(Cl)cc2C(c2c(F)cccc2OC)=NC3)ccc1C(=O)O + C=CC(=O)N1CCN(c2nc(OCC3CCCN3C)nc3c2CCN(c2cccc4cccc(C)c24)C3)CC1CC#N | No |
| CC(C)NCC(C(=O)N1CCN(c2ncnc3c2C(C)CC3O)CC1)c1ccc(Cl)cc1 (centres undefined) + COc1cc2nc(C)nc(NC(C)c3cc(N)cc(C(F)(F)F)c3)c2cc1OC1CCOC1 | No |
| CC(=O)OC12COC1CC(O)C1(C)C(=O)C(O)C3=C(C)C(OC(=O)C(O)C(NC(=O)OC(C)(C)C)c4ccccc4)CC(O)(C(OC(=O)c4ccccc4)C21)C3(C)C (centres undefined) + C=CC(=O)N1CCN(c2nc(OCC3CCCN3C)nc3c2CCN(c2cccc4cccc(C)c24)C3)CC1CC#N | No |
| CC1(C)CCC(CN2CCN(c3ccc(C(=O)NS(=O)(=O)c4ccc(NCC5CCOCC5)c([N+](=O)[O-])c4)c(Oc4cnc5[nH]ccc5c4)c3)CC2)=C(c2ccc(Cl)cc2)C1 + C=CC(=O)N1CCN(c2nc(OCC3CCCN3C)nc3c2CCN(c2cccc4cccc(C)c24)C3)CC1CC#N | No |
| Cn1nccc1Nc1nccc(-c2cc3c(s2)C(C)(C)N(CCN2CCOCC2)C3=O)n1 + C=CC(=O)N1CCN(c2nc(OCC3CCCN3C)nc3c2CCN(c2cccc4cccc(C)c24)C3)CC1CC#N | No |
| CC(C)NCC(C(=O)N1CCN(c2ncnc3c2C(C)CC3O)CC1)c1ccc(Cl)cc1 (centres undefined) + C=CC(=O)N1CCN(c2nc(=O)n(-c3c(C)ccnc3C(C)C)c3nc(-c4c(O)cccc4F)c(F)cc23)C(C)C1 | No |
| COC(=O)c1ccc2c(C(=Nc3ccc(N(C)C(=O)CN4CCN(C)CC4)cc3)c3ccccc3)c(O)[nH]c2c1 + CNCc1ccccc1-c1csc(C(C)Nc2nc(C)nc3cc(OC)c(OC)cc23)c1 | No |
| CC1OCC2(CCN(c3cnc(Sc4ccnc(N)c4Cl)c(N)n3)CC2)C1N (centres undefined) + COc1cc2nc(C)nc(NC(C)c3cc(N)cc(C(F)(F)F)c3)c2cc1OC1CCOC1 | No |
| CC1(C)CCC(CN2CCN(c3ccc(C(=O)NS(=O)(=O)c4ccc(NCC5CCOCC5)c([N+](=O)[O-])c4)c(Oc4cnc5[nH]ccc5c4)c3)CC2)=C(c2ccc(Cl)cc2)C1 + C=CC(=O)N1CCN(c2nc(=O)n(-c3c(C)ccnc3C(C)C)c3nc(-c4c(O)cccc4F)c(F)cc23)C(C)C1 | No |
| COc1cc(Nc2ncc3c(n2)-c2ccc(Cl)cc2C(c2c(F)cccc2OC)=NC3)ccc1C(=O)O + C=CC(=O)N1CCN(c2nc(=O)n(-c3c(C)ccnc3C(C)C)c3nc(-c4c(O)cccc4F)c(F)cc23)C(C)C1 | No |
| COC(=O)c1ccc2c(C(=Nc3ccc(N(C)C(=O)CN4CCN(C)CC4)cc3)c3ccccc3)c(O)[nH]c2c1 + C=CC(=O)N1CCN(c2nc(=O)n(-c3c(C)ccnc3C(C)C)c3nc(-c4c(O)cccc4F)c(F)cc23)C(C)C1 | No |
| COc1cc2nccc(Oc3ccc(NC(=O)C4(C(=O)Nc5ccc(F)cc5)CC4)cc3)c2cc1OC + CC1OCC2(CCN(c3cnc(Sc4ccnc(N)c4Cl)c(N)n3)CC2)C1N | No |
| Cn1nccc1Nc1nccc(-c2cc3c(s2)C(C)(C)N(CCN2CCOCC2)C3=O)n1 + C=CC(=O)N1CCN(c2nc(=O)n(-c3c(C)ccnc3C(C)C)c3nc(-c4c(O)cccc4F)c(F)cc23)C(C)C1 | No |
| CC1COCCN1c1cc(-c2ccnn2C)c2ccnc(-c3ccn[nH]3)c2n1 (centres undefined) + C=CC(=O)N1CCN(c2nc(OCC3CCCN3C)nc3c2CCN(c2cccc4cccc(C)c24)C3)CC1CC#N | Yes |
| CCNC(=O)CC1N=C(c2ccc(Cl)cc2)c2cc(OC)ccc2-n2c(C)nnc21 (centres undefined) + CNCc1ccccc1-c1csc(C(C)Nc2nc(C)nc3cc(OC)c(OC)cc23)c1 | No |
| CC(=O)OC12COC1CC(O)C1(C)C(=O)C(O)C3=C(C)C(OC(=O)C(O)C(NC(=O)OC(C)(C)C)c4ccccc4)CC(O)(C(OC(=O)c4ccccc4)C21)C3(C)C (centres undefined) + CC1OCC2(CCN(c3cnc(Sc4ccnc(N)c4Cl)c(N)n3)CC2)C1N | No |
